experiment: S16 Schwann cell PMP22 intronic element beta-lactamase assay (AID 624044); conditions: S16 rat Schwann cells, PMP22 element beta-lactamase FRET, 24 h; series mostly up to 38.3 µM; note: nearly all actives have a fitted effect of over 15% in size
Inconclusive results are not listed. Active and inactive are the calls of the source. Calls come from the whole dose curve.
I would appreciate it if you answered using one of these outcomes: Y (active), N (inactive)

Check out these entries, answers already filled in.
compound: O=C(O)c1ccccc1-c1c2cc(Br)c(=O)cc-2oc2[c]([Hg])c(O)c(Br)cc12
label.value: N
//
compound: COc1cc2c(cc1OC)C1CC(=O)C(CC(C)C)CN1CC2 (stereo not drawn)
label.value: N
//
compound: CCCCCCCCCC[N+](C)(C)CCCCCCCCCC
label.value: Y
//
compound: CO[C@H]1[C@@H](O)CC(OC2[C@@H](O)CC(OC3[C@@H](O)C[C@H](OC4CC[C@@]5(C)C(CCC6C5CC(O)[C@]5(C)[C@H](C7=CC(=O)OC7)CCC65O)C4)O[C@@H]3C)O[C@@H]2C)O[C@@H]1C (stereo partly drawn)
label.value: N
//
compound: CC(C)[C@@]1(NC(=O)[C@H]2CC3c4cccc5[nH]cc(c45)C[C@H]3N(C)C2)O[C@@]2(O)C3CCCN3C(=O)[C@@H](Cc3ccccc3)N2C1=O (stereo partly drawn)
label.value: N

Task: Which outcome was entered for the compound COC(=O)C[C@](O)(CCCC(C)(C)O)C(=O)O[C@@H]1C(OC)=C[C@]23CCCN2CCc2cc4c(cc2[C@H]13)OCO4 in this test?
Result: Y

Task: Which outcome did this test record for the compound CC[C@H]1CN2CCc3cc(OC)c(OC)cc3[C@H]2C[C@@H]1C[C@@H]1NCCc2cc(OC)c(OC)cc21 ?
Result: Y

Task: Entry CCN(CC)CCO[C@H]1CC[C@@]2(C)C(=CC[C@@H]3[C@H]2CC[C@]2(C)C(=O)CC[C@H]32)C1 : call = ?
Result: N
